Target: human neutrophil elastase (HNE) (Homo sapiens)
Construct: Recombinant HNE protein (molecular mass, 25 kDa)
Sequence (P08246 30-247): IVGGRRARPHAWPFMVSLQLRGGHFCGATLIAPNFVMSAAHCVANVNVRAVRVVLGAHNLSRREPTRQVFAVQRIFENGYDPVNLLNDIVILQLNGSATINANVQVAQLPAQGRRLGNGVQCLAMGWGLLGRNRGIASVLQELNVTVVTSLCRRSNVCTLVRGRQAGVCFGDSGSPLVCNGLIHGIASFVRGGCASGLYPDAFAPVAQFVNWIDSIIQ
Assay: SPR (Biacore […], HNE immobilized on CM5 chip, […] Langmuir fit); also enzyme inhibition with IC50 […]
Quantity Measured: Kd (µM)
One number for each entry, in µM.

Observed Kd on human neutrophil elastase (HNE) (Homo sapiens), entry O=C(OC1Cc2c(O)cc(O)cc2OC1c1cc(O)c(O)c(O)c1)c1cc(O)c(O)c(O)c1 (stereo not shown) [EGCG] , equals 41.4
